Quick list: TGI per entry.
# Test system: BT-549 breast
# Test method notes: NCI tumour cell line growth inhibition, 48 h

O=C(CN1CCCCC1)c1ccc2[nH]c(=O)oc2c1 = > 100 µM

Please tell me: TGI of CCOC(=O)c1nc2ccccc2nc1Nc1cc(OC)c(OC)c(OC)c1 , system BT-549 breast? > 100 µM

Also need CCN1CC2=C(OC(N)=C(C#N)C2c2ccc(Cl)cc2)/C(=C/c2ccc(Cl)cc2)C1 (stereo not drawn) , thanks. > 100 µM

###

# System: U251 CNS
# Test method notes: NCI tumour cell line growth inhibition, 48 h
Quick list: TGI per entry.

These recorded examples may help you get a feel for the data.
COc1ccc(Nc2nc3ccccc3nc2-c2cccs2)cc1OC = > 10 µM
CCO/C(O)=c1/s/c(=C2/SC(=S)N(c3ccc(C)cc3)C2=O)n(-c2ccccc2)c1=N = > 100 µM
CCOc1ccc2c(c1)[n+]([O-])c(-c1ccccc1)c(N)[n+]2[O-] = > 100 µM
CCN(CC)c1c(-c2c(OC(C)C)c(=O)c2=O)c(=O)n2ccsc2c1OC(C)=O = > 100 µM
CC(C)CC(NC(=O)C(O)C(N)Cc1ccccc1)C(=O)O (stereo unspecified) = > 100 µM
Cc1cc[c]([Sb]2[O]C(CO)C(C(O)C(O)C(=O)O)[O]2)cc1 (stereo unspecified) = > 100 µM
O=C(Nc1ccc(Cl)cc1)c1cc(S(=O)(=O)Nc2nc3ncccc3[nH]2)c(SSc2cc(Cl)c(C(=O)Nc3ccc(Cl)cc3)cc2S(=O)(=O)Nc2nc3ncccc3[nH]2)cc1Cl = > 100 µM
O=S(=O)(O)c1cc(O)c(N=NC2S(=O)(=O)OCCOS2(=O)=O)c2ccccc12 = > 100 µM
N#C/C=C(/NC(=O)Nc1ccccc1)N1CCCC1 = > 53.8 µM
CSC(=Nc1ccc([N+](=O)[O-])cc1C#N)NC(=O)c1ccccc1 = > 100 µM

Would you mind telling me what TGI value was observed for CCC(=O)N1C(=S)SC[C@H]1C(=O)OC ? > 100 µM

Also need CC(C)(C)c1ccc(O)c(C(O)c2ccccn2)c1 (stereo unspecified) , thanks. > 100 µM
